Provenance of the data: the supplement of paper PMC11208160

test: recombinant barcode read abundance after kanamycin selection (control-corrected) (log10(CPM+1)); higher = more efficient recombination; sequences stand for … in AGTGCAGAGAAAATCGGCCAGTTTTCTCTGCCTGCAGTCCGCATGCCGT…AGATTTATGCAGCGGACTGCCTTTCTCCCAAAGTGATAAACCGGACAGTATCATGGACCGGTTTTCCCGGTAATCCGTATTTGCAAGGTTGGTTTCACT; site = the 11-nt target
MEASURED QUANTITY: recombinant barcode read abundance (log10)
Please reply with the value in numeric form only.

These recorded examples may help you get a feel for the data.
MONOMER SEQUENCE: TAGCCTTCTTGGGTTCTAACCTGTTGCCT (site TAGCCTTCTAG)
MEAS VALUE: 0.572

MONOMER SEQUENCE: CTACAGGCTTGGGTTCTAACCTGTTGCAC (site CTACAGGCTGT)
MEAS VALUE: 1

Which recombinant barcode read abundance (log10) value belongs to CTCGAATCTTGGGTTCTAACCTGTTGCTA (site CTCGAACCTCA) ?
0.175

Look at this sequence and give its reported recombinant barcode read abundance (log10). GTGACCTCTTGGGTTCTAACCTGTTGCCT (site GTGACCTCTAG)
1.49

Fill in the blank: the reported recombinant barcode read abundance (log10) of CCTACAACTTGGGTTCTAACCTGTTGCCT (site CCTACAGCTAG) is ____.
0.138

----------
experiment: recombinant UMI read abundance after kanamycin selection (control-corrected) (log10(CPM+1)); higher = more efficient recombination; extreme values may be limits of the assay; sequences stand for … in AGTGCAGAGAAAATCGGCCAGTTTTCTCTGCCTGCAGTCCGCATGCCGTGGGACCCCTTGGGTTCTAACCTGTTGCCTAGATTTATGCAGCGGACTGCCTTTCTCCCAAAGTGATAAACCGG…AGGTTGGTTTCACT; site = the 11-nt donor
MEASURED QUANTITY: recombinant UMI read abundance (log10)
Just the number, please, no unit after it.

Record excerpt, results attached:
MONOMER SEQUENCE: AGCTCCGCATGGACCGGTTTTCCCGGTAATCCGTATTTGCG (site AGCTCCGCTCG)
recombinant UMI read abundance (log10): 0.271
--
MONOMER SEQUENCE: AGGAAGGCATGGACCGGTTTTCCCGGTAATCCGTATTTGCA (site AGGAAGCCTTG)
recombinant UMI read abundance (log10): 0
--
MONOMER SEQUENCE: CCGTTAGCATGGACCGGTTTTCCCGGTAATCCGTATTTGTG (site CCGTGAGCTCA)
recombinant UMI read abundance (log10): 0.0389

Now turn to the next sequence.
// lookup recombinant UMI read abundance (log10) for AGGACTACATGGACCGGTTTTCCCGGTAATCCGTATTTGAT (site AGGACTACTCT)
0.00954

----------
assay: recombinant barcode read abundance after kanamycin selection (control-corrected) (log10(CPM+1)); higher = more efficient recombination; sequences stand for … in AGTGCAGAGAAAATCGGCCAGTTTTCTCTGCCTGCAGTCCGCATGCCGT…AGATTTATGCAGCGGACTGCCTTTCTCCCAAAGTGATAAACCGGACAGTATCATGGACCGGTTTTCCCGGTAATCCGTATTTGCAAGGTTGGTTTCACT; site = the 11-nt target
Rule: recombinant barcode read abundance (log10) under 0.9 gives NO, otherwise YES.

Field: example entries. Status: answers known.
MONOMER SEQUENCE: TGGCGCTCTTGGGTTCTAACCTGTTGCCT (site TGACGCTCTAG)
LABEL VALUE: NO
--
MONOMER SEQUENCE: AGCCCTCCTTGGGTTCTAACCTGTTGCTC (site AGCCCTCCTAA)
LABEL VALUE: NO
--
MONOMER SEQUENCE: GAGTAGACTTGGGTTCTAACCTGTTGCTT (site GAGTAGTCTAA)
LABEL VALUE: YES

Entry ACCGCTCCTTGGGTTCTAACCTGTTGCCT (site ACCGCTCCTAG) : is its recombinant barcode read abundance (log10) no less than 0.9?
NO

Could you please find out whether GTTACCTCTTGGGTTCTAACCTGTTGCCT (site GTTACCTCTAG) has recombinant barcode read abundance (log10) that meets 0.9 or exceeds it?
NO

----------
We begin with a simple list: items and their reported recombinant UMI read abundance (log10).
assay: recombinant UMI read abundance after kanamycin selection (control-corrected) (log10(CPM+1)); higher = more efficient recombination; extreme values may be limits of the assay; sequences stand for … in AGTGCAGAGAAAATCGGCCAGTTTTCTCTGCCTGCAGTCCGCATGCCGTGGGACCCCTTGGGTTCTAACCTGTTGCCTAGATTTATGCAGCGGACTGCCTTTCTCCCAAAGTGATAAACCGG…AGGTTGGTTTCACT; site = the 11-nt donor
Please give the numeric answer without any surrounding text.

MONOMER SEQUENCE: AAGCACACATGGACCGGTTTTCCCGGTAATCCGTATTTGGG (site AAGCACACTCC)
recombinant UMI read abundance (log10): 0.242
--
MONOMER SEQUENCE: CAAGTCACATGGACCGGTTTTCCCGGTAATCCGTATTTGGC (site CAAGTCACTGC)
recombinant UMI read abundance (log10): 2.99
--
MONOMER SEQUENCE: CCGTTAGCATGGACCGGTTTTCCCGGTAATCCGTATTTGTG (site CCCTTAGCTCA)
recombinant UMI read abundance (log10): 0.0161

Consider the record given below.
// recombinant UMI read abundance (log10) lookup, key: CATAACGCATGGACCGGTTTTCCCGGTAATCCGTATTTGGG (site CATAACGCTCC)
0.802

----------
assay: recombinant barcode read abundance after kanamycin selection (control-corrected) (log10(CPM+1)); higher = more efficient recombination; sequences stand for … in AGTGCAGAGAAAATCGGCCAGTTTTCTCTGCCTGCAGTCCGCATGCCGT…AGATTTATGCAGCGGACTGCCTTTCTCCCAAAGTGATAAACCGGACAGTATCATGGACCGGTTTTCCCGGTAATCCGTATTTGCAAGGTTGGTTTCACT; site = the 11-nt target
Entry flag: True if recombinant barcode read abundance (log10) reaches 0.2; False if it does not.

MONOMER SEQUENCE: ATTCAGACTTGGGTTCTAACCTGTTGCGG (site ATCCAGGCTCC)
LABEL VALUE: False

Hi, just wondering whether AGAGGTTCTTGGGTTCTAACCTGTTGCCT (site ACAGGTTCTAG) shows recombinant barcode read abundance (log10) of 0.2 or higher.
False

For this sequence, is measured recombinant barcode read abundance (log10) 0.2 or higher? ACCCTAGCTTGGGTTCTAACCTGTTGCTC (site AACCTAGCTTA)
False

----------
A collection of sequences and their measured recombinant barcode read abundance (log10)
experiment: recombinant barcode read abundance after kanamycin selection (control-corrected) (log10(CPM+1)); higher = more efficient recombination; sequences stand for … in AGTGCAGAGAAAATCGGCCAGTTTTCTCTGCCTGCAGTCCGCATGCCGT…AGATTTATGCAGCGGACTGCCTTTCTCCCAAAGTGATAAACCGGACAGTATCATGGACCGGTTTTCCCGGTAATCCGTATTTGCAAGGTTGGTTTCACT; site = the 11-nt target
Number, no unit, nothing else.

Previously resolved entries follow.
MONOMER SEQUENCE: GGAATGTCTTGGGTTCTAACCTGTTGCCT (site GGAATGTCTAG)
MEAS VALUE: 2.09
//
MONOMER SEQUENCE: ATTAAGTCTTGGGTTCTAACCTGTTGCCT (site ACTAAGTCTAG)
MEAS VALUE: 0.08
//
MONOMER SEQUENCE: ATAAAAGCTTGGGTTCTAACCTGTTGCCT (site ATAAGAGCTAG)
MEAS VALUE: 0.172
//
MONOMER SEQUENCE: ACTAAGTCTTGGGTTCTAACCTGTTGCCT (site ATTAAGTCTAG)
MEAS VALUE: 0.0792
//
MONOMER SEQUENCE: GAGTATGCTTGGGTTCTAACCTGTTGCCT (site GAGTATGCTAG)
MEAS VALUE: 1.72
//
MONOMER SEQUENCE: GCGGAAGCTTGGGTTCTAACCTGTTGCCT (site GAGGAAGCTAG)
MEAS VALUE: 0.192
//
MONOMER SEQUENCE: TCCGAAACTTGGGTTCTAACCTGTTGCAT (site TCCGAAACTAT)
MEAS VALUE: 1.15
//
MONOMER SEQUENCE: TGCCGCTCTTGGGTTCTAACCTGTTGCCT (site TGTCGCTCTAG)
MEAS VALUE: 0.0629
//
MONOMER SEQUENCE: CTAGGCCCTTGGGTTCTAACCTGTTGCAT (site CTAGGCCCTAT)
MEAS VALUE: 2.77
//
MONOMER SEQUENCE: GCCGATACTTGGGTTCTAACCTGTTGCCA (site GCCGATACTTG)
MEAS VALUE: 0

Okay, next one:
Entry CAAATGTCTTGGGTTCTAACCTGTTGCCT (site AAAATGCCTAG) has what recombinant barcode read abundance (log10)?
0.299
